Test system: SK-MEL-28 melanoma
test: NCI-60 one-dose screen, 48 h
experimental_conditions: 10 µM
This is part of a sample that, as a whole, favours compounds with a hit. Of some 83,000 tested, about 20% had one in any assay. Calls of active or inactive are those of the source. How the source made its calls: active means growth percent below 10; inactive means the rest.
Possible outcomes: t for active, f for inactive

{"molecule": "Nc1nnc(-c2c[nH]c3ncc(Br)cc23)c(-c2c[nH]c3ccc(Br)cc23)n1", "assay_target": "SK-MEL-28 melanoma", "assigned_label": "f"}
{"molecule": "COc1ccc(C2c3sc4ccc(C)cc4c3Oc3nc(N)nc(N)c32)cc1 (centres undefined)", "assay_target": "SK-MEL-28 melanoma", "assigned_label": "f"}
{"molecule": "COc1ccc(C2OC[C@@]3(C)C4CC[C@]5(C)C(CC=C6C7CC(C)(C)CC[C@]7(C(=O)O)CC[C@]65C)[C@@]4(C)C[C@@H](O)[C@@H]3O2)cc1 (some centres undefined)", "assay_target": "SK-MEL-28 melanoma", "assigned_label": "f"}
{"molecule": "CCOc1ccc(/C=N/NC(=O)Cn2nc(Cc3ccc(OC)cc3)c3onc(C)c3c2=O)cc1", "assay_target": "SK-MEL-28 melanoma", "assigned_label": "f"}
{"molecule": "COc1cc(C2CC(c3ccc(Oc4ccc(Cl)cc4)cc3)=NN2c2nc(-c3ccc(Cl)cc3)c(C#N)c(N3CCOCC3)n2)cc(OC)c1OC (centres undefined)", "assay_target": "SK-MEL-28 melanoma", "assigned_label": "f"}
{"molecule": "COC(=O)CNC(=O)COc1c(OC)c(OC)cc2oc(-c3cccc(C(=O)Nc4ccc(Cl)cc4)c3)cc(=O)c12", "assay_target": "SK-MEL-28 melanoma", "assigned_label": "f"}
{"molecule": "Cc1ccc2sc3c(c2c1)Oc1nc[nH]c(=O)c1C3c1cccc(F)c1 (centres undefined)", "assay_target": "SK-MEL-28 melanoma", "assigned_label": "f"}
{"molecule": "O=C1S/C(=C\\c2ccc([N+](=O)[O-])cc2)C(=O)N1CCN1CCCCC1", "assay_target": "SK-MEL-28 melanoma", "assigned_label": "f"}
{"molecule": "COc1ccc(C2c3sc4ccc(C)cc4c3Oc3nc[nH]c(=O)c32)cc1 (centres undefined)", "assay_target": "SK-MEL-28 melanoma", "assigned_label": "f"}
{"molecule": "C#C[C@]1(O)CC[C@H]2[C@@H]3CC=C4c5sc(Nc6ccc(C(F)(F)F)cn6)nc5CC[C@]4(C)[C@H]3CC[C@@]21C", "assay_target": "SK-MEL-28 melanoma", "assigned_label": "t"}
{"molecule": "Cc1cc(N=C2NC(=O)/C(=C/c3cc(C(C)(C)C)c(O)c(C(C)(C)C)c3)S2)n[nH]1", "assay_target": "SK-MEL-28 melanoma", "assigned_label": "f"}
{"molecule": "COc1cccc(C(=O)CSc2nc(-c3ccc(OCc4ccccc4)c(OC)c3)c(C#N)c(=O)[nH]2)c1", "assay_target": "SK-MEL-28 melanoma", "assigned_label": "f"}
{"molecule": "Cc1ccc2c(c1)C(=O)/C(=C/c1ccc([N+](=O)[O-])cc1)S2", "assay_target": "SK-MEL-28 melanoma", "assigned_label": "f"}
{"molecule": "COc1ccccc1-n1cc(C#N)c(N)c1C(=O)c1ccc(Cl)cc1Cl", "assay_target": "SK-MEL-28 melanoma", "assigned_label": "f"}
{"molecule": "Cn1cc(-c2cc3nc(-c4c[nH]c5ccccc45)cc(N)n3n2)c2cc(Cl)ccc21", "assay_target": "SK-MEL-28 melanoma", "assigned_label": "t"}
{"molecule": "Cc1ccc(COc2ccc(NC(=O)Nc3ccc(Cl)c(C(F)(F)F)c3)cc2)cc1", "assay_target": "SK-MEL-28 melanoma", "assigned_label": "f"}
{"molecule": "Cc1ccc(S(=O)(=O)N2CCN(S(=O)(=O)c3oc(-c4ccccc4)nc3C#N)CC2)cc1", "assay_target": "SK-MEL-28 melanoma", "assigned_label": "f"}
{"molecule": "Cn1cc(-c2nnc(N)nc2-c2c[nH]c3ccccc23)c2cc(Br)cnc21", "assay_target": "SK-MEL-28 melanoma", "assigned_label": "f"}
{"molecule": "Cn1cc(-c2cc(N)n3nc(-c4cn(C)c5ccccc45)cc3n2)c2cc(F)ccc21", "assay_target": "SK-MEL-28 melanoma", "assigned_label": "t"}
